# measured-on: T1, human CX3CR1 (human, UniProt P49238 1-355)
# T1 construct: overexpressed on CHO, BA/F3 or HEK293T cells; also called huCX3CR1; hCX3CR1
# T1 sequence: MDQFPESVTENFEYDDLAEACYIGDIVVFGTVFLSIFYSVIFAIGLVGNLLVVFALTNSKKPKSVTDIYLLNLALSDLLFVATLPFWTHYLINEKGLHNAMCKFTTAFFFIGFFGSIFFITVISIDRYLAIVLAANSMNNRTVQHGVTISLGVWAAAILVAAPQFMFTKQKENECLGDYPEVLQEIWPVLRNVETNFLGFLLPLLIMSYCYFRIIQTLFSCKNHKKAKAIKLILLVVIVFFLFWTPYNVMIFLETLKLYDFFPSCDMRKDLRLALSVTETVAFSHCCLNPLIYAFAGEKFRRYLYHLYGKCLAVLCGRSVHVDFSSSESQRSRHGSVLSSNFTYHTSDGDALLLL
# measurement-description: A647-fractalkine competition FACS, HEK293-huCX3CR1
Each item that follows carries a reported % block.

- binder: "CX3CR1BII016 (VHH, expressed in E. coli as described for the monovalent VHHs) EVQLVESGGGSVQAGESLRLSCAASGSIFSSNAMAWYRQAPGKQRDLVAVINSVGITKYADSVKGRFTISGDNAKNTVYLQMNSLKPEDTAVYYCTSDARRGWDTRYWGQGTQVTVSSGGGGSGGGGSGGGGSGGGGSGGGGSGGGGSGGGGSEVQLVESGGGSVQAGESLRLSCAASGSIFSSNAMAWYRQAPGKQRDLVAVINSVGITKYADSVKGRFTISGDNAKNTVYLQMNSLKPEDTAVYYCTSDARRGWDTRYWGQGTQVTVSS"
  % block: "102%"
- binder: "CX3CR1BII020 (VHH, expressed in E. coli as described for the monovalent VHHs) EVQLVESGGGSVQAGESLRLSCAASGSIFSSNAMAWYRQAPGKQRDLVAGINSVGITKYADSVKGRFTISRDNAKNTAYLQMNSLKPEDTAVYYCTSDPRRGWDTRYWGQGTLVTVSSGGGGSGGGGSGGGGSGGGGSGGGGSGGGGSGGGGSEVQLVESGGGSVQAGESLRLSCAASGSIFSSNAMAWYRQAPGKQRDLVAGINSVGITKYADSVKGRFTISRDNAKNTAYLQMNSLKPEDTAVYYCTSDPRRGWDTRYWGQGTLVTVSS"
  % block: "102%"
- binder: "CX3CR1BII017 (VHH, expressed in E. coli as described for the monovalent VHHs) EVQLVESGGGSVQAGESLRLSCAASGSIFSSNAMAWYRQAPPGKQRDLVALINSVGITKYADSVKGRFTISSDNAKNTVYLEMNSLKPEDTAVYYCTSDGRRGWDTRYWGQGTQVTVSSGGGGSGGGGSGGGGSGGGGSGGGGSGGGGSGGGGSEVQLVESGGGSVQAGESLRLSCAASGSIFSSNAMAWYRQAPPGKQRDLVALINSVGITKYADSVKGRFTISSDNAKNTVYLEMNSLKPEDTAVYYCTSDGRRGWDTRYWGQGTQVTVSS"
  % block: "99%"
